Molecular target: FZD2 cysteine-rich domain (CRD), MYC-tagged and GPI-anchored on CHO cells (human, UniProt Q14332 35-161)
Experiment: flow cytometry, CHO-CRD cells;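 also: flow cytometry of Fab binding to CHO cells overexpressing a Frizzled CRD, with binding defined as median fluorescence over twice that of CHO cells lacking any Frizzled CRD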
Hi there, I'd appreciate the recorded median fluorescence for every entry that follows.
Give bare numbers.

Example results:
# BINDER, median fluorescence
rows = [
    ("Fab-2923 (Fab, V domains shown, Fab; also called Fv-2923) VH: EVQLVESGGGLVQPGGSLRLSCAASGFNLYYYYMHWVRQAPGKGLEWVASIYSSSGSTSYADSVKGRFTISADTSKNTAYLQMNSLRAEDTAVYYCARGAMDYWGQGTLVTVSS VL: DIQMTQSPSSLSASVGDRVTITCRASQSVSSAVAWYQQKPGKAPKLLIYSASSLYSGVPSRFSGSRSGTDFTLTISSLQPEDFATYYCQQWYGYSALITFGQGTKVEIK", 7.91),
    ("Fab-2915 (Fab, V domains shown, Fab; also called Fv-2915) VH: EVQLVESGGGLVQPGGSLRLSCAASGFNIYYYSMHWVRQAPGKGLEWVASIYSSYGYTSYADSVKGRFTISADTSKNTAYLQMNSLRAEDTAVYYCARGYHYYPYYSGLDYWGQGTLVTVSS VL: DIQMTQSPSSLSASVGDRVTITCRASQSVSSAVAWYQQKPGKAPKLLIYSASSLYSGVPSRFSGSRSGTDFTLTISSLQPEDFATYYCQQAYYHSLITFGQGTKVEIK", 22.1),
]

Could you tell me median fluorescence for each of these binders? They are listed below.
1. Fab-2912 (Fab, V domains shown, Fab; also called Fv-2912) VH: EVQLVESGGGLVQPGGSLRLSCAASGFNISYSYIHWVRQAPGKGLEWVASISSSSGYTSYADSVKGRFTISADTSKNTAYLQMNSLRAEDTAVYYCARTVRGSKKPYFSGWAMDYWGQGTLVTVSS VL: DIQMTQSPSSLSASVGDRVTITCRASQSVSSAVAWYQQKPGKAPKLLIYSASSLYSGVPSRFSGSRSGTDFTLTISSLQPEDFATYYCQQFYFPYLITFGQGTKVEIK
2. Fab-2921 (Fab, V domains shown, Fab) VH: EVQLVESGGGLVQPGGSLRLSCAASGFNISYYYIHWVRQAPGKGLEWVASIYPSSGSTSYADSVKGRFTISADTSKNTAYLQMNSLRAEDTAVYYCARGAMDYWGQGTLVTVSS VL: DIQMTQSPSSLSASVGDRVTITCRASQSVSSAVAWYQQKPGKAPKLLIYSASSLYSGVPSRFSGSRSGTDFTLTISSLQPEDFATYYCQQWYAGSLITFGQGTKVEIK
3. Fab-2926 (Fab, V domains shown, Fab; also called Fv-2926) VH: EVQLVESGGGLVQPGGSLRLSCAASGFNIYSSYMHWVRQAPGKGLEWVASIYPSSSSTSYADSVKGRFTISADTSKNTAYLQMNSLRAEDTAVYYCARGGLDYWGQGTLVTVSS VL: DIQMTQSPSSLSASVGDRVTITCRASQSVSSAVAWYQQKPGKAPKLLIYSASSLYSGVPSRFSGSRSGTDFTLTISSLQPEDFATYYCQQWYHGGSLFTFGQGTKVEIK

1. 19.8
2. 4.37
3. 6.21
